- System: Blumeria graminis f. sp. tritici
- TEST NAME: Test I: wheat powdery mildew, preventive spray on wheat seedlings, visual disease rating
- TEST CONTEXT: wheat powdery mildew; 100 = 100% disease control, 0 = no disease control relative to the controls
OBSERVATION TYPE: Test I rating (disease control) (%)
The response must be a number in % with no trailing unit.

Reported Test I rating (disease control) for Cc1nn(C)c(Nc2c(Cl)cc(F)cc2Br)c1-c1ccc(F)cc1F [compound 120] was 100

Reported Test I rating (disease control) for Cc1nn(C)c(Nc2ccc(F)cc2F)c1-c1ccc(F)cc1F [compound 64] was 100

Reported Test I rating (disease control) for Cc1nn(C)c(Nc2ccc(Cl)cc2F)c1-c1ccc(F)cc1F [compound 160] was 100

Reported Test I rating (disease control) for Cc1nn(C)c(Nc2ccc(Br)cc2F)c1-c1ccc(F)cc1Cl [compound 135] was 100

Reported Test I rating (disease control) for Cc1nn(C)c(Nc2c(F)cccc2F)c1-c1c(F)cccc1F [compound 69] was 100

Reported Test I rating (disease control) for Cc1nn(C)c(Nc2ccc(C#N)cc2F)c1-c1c(F)cc(F)cc1F [compound 34] was 99

Reported Test I rating (disease control) for COc1cc(F)c(-c2c(C)nn(C)c2Nc2c(F)cc(C#N)cc2F)c(F)c1 [compound 20] was 13

Reported Test I rating (disease control) for Cc1nn(C)c(Nc2ccc(F)cc2Br)c1-c1ccc(F)cc1Br [compound 95] was 100

Reported Test I rating (disease control) for Cc1nn(C)c(Nc2ccc(Cl)cc2Cl)c1-c1ccc(F)cc1F [compound 67] was 100

* * *

- Test system: Alternaria solani
- TEST NAME: Test B: tomato early blight, preventive spray on tomato seedlings, visual disease rating
- TEST CONTEXT: tomato early blight, preventive spray; 100 = 100% disease control; rating without asterisk
OBSERVATION TYPE: Test B rating (% disease control) (%)
The response must be a number in % with no trailing unit.

GET /values?item= "COc1ccc(-c2c(C)nn(C)c2Nc2c(F)cc(Cl)cc2F)c(F)c1" &system= Alternaria solani returns Test B rating (% disease control): 99

GET /values?item= "CCOc1ccc(-c2c(C)nn(C)c2Nc2c(F)cc(Cl)cc2Cl)c(Cl)c1" &system= Alternaria solani returns Test B rating (% disease control): 77

GET /values?item= "Cc1nn(C)c(Nc2c(F)cc(I)cc2F)c1-c1ccc(F)cc1Cl" &system= Alternaria solani returns Test B rating (% disease control): 58

GET /values?item= "COc1ccc(-c2c(C)nn(C)c2Nc2c(F)cc(F)cc2I)c(Cl)c1" &system= Alternaria solani returns Test B rating (% disease control): 100

GET /values?item= "Cc1nn(C)c(Nc2ccc(Br)cc2Br)c1-c1ccc(F)cc1Cl" &system= Alternaria solani returns Test B rating (% disease control): 0

GET /values?item= "Cc1nn(C)c(Nc2c(F)cc(Cl)cc2I)c1-c1ccc(F)cc1F" &system= Alternaria solani returns Test B rating (% disease control): 100

GET /values?item= "Cc1nn(C)c(Nc2c(F)cc(F)cc2Cl)c1-c1ccc(Cl)cc1F" &system= Alternaria solani returns Test B rating (% disease control): 40

GET /values?item= "Cc1nn(C)c(Nc2c(F)cc(F)cc2I)c1-c1ccc(F)cc1Cl" &system= Alternaria solani returns Test B rating (% disease control): 100

GET /values?item= "CCOc1cc(F)c(-c2c(C)nn(C)c2Nc2c(Cl)cc(F)cc2Cl)c(F)c1" &system= Alternaria solani returns Test B rating (% disease control): 97
